Assay name: Cytotoxicity assay (CellTiter-Glo)
Format: cell-based, human
Condition info: human; U937 cells; CellTiter-Glo; mean of three independent experiments; read-out: CC50
Assay readout: CC50 (µM)
# number only, unit µM dropped from output

- Compound string: "N#CC[C@@H](C1CCCC1)n1cc(-c2ncnc3[nH]ccc23)cn1"
  Assay readout: "CC50"
  Value unit: "µM"
  Val: 100

// fetch CC50 given entry "Cc1cc(Nc2nc(N[C@@H](C)c3ncc(F)cn3)ncc2Cl)n[nH]1"
13.5

----------
Test system: IP-10
Assay name: cells
Assay type: cell-based, human
Condition info: Homo sapiens, U-937, 72 h, read-out: IC50 IP-10
Assay readout: pIC50
Scale: pIC50 equals -log10([C]), with [C] in mol/L.

Examples with answers:
- Compound: "O=C(Nc1ccc(-c2ccnc(Nc3ccc(N4CCOCC4)cc3)n2)cc1)C1CCCN1 (stereo not drawn)"
  pIC50: 6.00
- Compound: "N#CC[C@@H](C1CCCC1)n1cc(-c2ncnc3[nH]ccc23)cn1"
  pIC50: 7.10

For the next question, use this compound.
Tell me pIC50 of "Cc1cc(Nc2nc(N[C@@H](C)c3ccc(F)cc3)c(C#N)cc2F)n[nH]1" when tested on IP-10.
8.00
